The measurements presented in this section are drawn from patent US20170166631A1.

Target: T1, HD21 (huntingtin exon 1 protein with 21 polyQ repeats after cleavage of the GST tag; aggregation reaction) (human, UniProt P42858 1-88)
T1 chain: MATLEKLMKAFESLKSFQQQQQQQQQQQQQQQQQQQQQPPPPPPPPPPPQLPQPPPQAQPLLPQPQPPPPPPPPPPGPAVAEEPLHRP
Experiment: ELISA
Below: a set of entries, each annotated with reported EC50.
Reply with a number, then the unit it belongs to.

Consider the worked cases shown below.
{"columns": ["binder", "EC50"],
 "data": [
  ["NI-302.46C9 (antibody, V domains shown) VH: QVQLQESGPGLVKPSQTLSLTCTVSGASVSSGAYYWSWIRQPAGKRLEWIGRVYPTWSTNYNPSLESRVTISLDTSNNQFSLKLTSLTAADTAVYYCAREAPGDYDAAPLAYWGQGTLVTVSS VL: DIQMTQSPSSLSASVGDRVTITCRASQYISHYLNWYRQKPGKAPQLVIYAASSLQSEVPSRFSGSGSGPEFTLTISSLQPEDFATYYCQQSYTTPRTFGQGTKLEIK", "0.3 nM"],
  ["NI-302.78H12 (antibody, V domains shown) VH: QVQLQESGPGLVKPSETLSLTCLVSSYSISNGYYWGWIRQPPGKGLEWIGSIYHNGNTYYNPSLKSRVIISVDTSKNQFSLKLRSVTAADTAVYYCAMPSATYYYGSGTQFHAFDVWGQGTTVTVSS VL: QSALTQPRSVSGSPGQSVTISCTGTSRDVGNYNYVSWYQQHPGEVPKLIIYDVSERPSGVPDRFSGSKSGNTASLTISGLQAEDEADYYCCSYAGSYTFEVFGGGTKLTVL", "1.1 nM"]
]}

Next up:
Task: So what does the record say about EC50 for NI-302.8F1 (antibody, V domains shown) VH: EVQLVESGGGLVKPGGSLTISCAASGFTFSNAWMNWVRQAPGKGLEWVGHIRTQAEGGTSDYAAPVKGRFTISRDDSKNTLYLQMNSLKTEDTAVYYCIPPPYYYYYGLDVWGQGTTVTVSS VL: QSALTQPASVSGSPGQSITISCTGASSDVGTYDLVSWYQQHPGKAPKLIIYEVNKRPSGVSYRFSASKSANTASLTISGLQAEDEAEYYCCSYAGYSTVFGGGTKLTVL ?
Result: 1.6 nM
